B1: tRNA (parent)
chain: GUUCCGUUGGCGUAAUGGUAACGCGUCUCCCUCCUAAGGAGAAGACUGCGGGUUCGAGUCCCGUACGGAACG

Variants of: B1
Assay details: yeast fitness relative to wild type (ratio to wild type); higher = fitter; tRNA-Arg(CCU), competitive growth, 37 C, YPD
Fewer inactive variants are shown than the library holds.
Observation type: yeast fitness

Prompt: Look at this variant and give its reported yeast fitness. GUUCCGAUAGCGUAAUGGUAACGAGUCUCCCUCCUAAGGAGAAGACUGCGGGUUCGAGUCCCGUACGGAACG [U7A G9A C24A]
Completion: ≤ 0.5
